test: Metabolic stability in human liver microsomes assessed as compound metabolism incubated for 30 mins in presence of NADPH by LC-MS/MS analysis; type: ADME, Microsome; conditions: read-out: Drug metabolism
Hi! Could you tag entries with metabolised at 0.5 h below 10% as 1, and those at or above as -1? Much appreciated.

INSERT INTO assay_data (smiles_repr, group_label) VALUES
  ('Cl.Fc1ccc(OC[C@@H]2C[C@H]3C[C@H]3N2)cn1', -1),
  ('Cl.c1cncc(OC[C@@H]2C[C@H]3C[C@H]3N2)c1', -1),
  ('Cl.Clc1ccc(OC[C@H]2C[C@@H]3C[C@@H]3N2)cn1', -1),
  ('Cl.c1cncc(OC[C@@H]2CC[C@H]3C[C@H]3N2)c1', -1),
  ('c1cncc(OC[C@H]2NC[C@@H]3C[C@@H]32)c1', 1),
  ('Cl.Clc1ncccc1OC[C@@H]1C[C@H]2C[C@H]2N1', -1),
  ('Cl.Clc1ccc(OC[C@@H]2CC[C@H]3C[C@H]3N2)cn1', -1),
  ('Cl.Clc1ccc(OC[C@@H]2C[C@H]3C[C@H]3N2)cn1', -1),
  ('Cl.Clc1cncc(OC[C@@H]2C[C@H]3C[C@H]3N2)c1', -1),
  ('Cl.c1cncc(OC[C@@H]2C[C@@H]3C[C@@H]3N2)c1', 1);
